SUBJECT OF TEST: KRas^Q61H (Homo sapiens, UniProt P01116, Q61H)
Sequence (P01116 1-169 isoform P01116-2 Q61H): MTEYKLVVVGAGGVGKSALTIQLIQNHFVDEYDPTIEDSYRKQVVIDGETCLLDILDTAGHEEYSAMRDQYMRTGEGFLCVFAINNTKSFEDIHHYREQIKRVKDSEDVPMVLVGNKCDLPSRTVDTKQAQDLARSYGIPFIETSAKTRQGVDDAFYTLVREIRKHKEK
ASSAY SUMMARY: biochemical
Assign IC50 to each entry below.
Just the number in µM, nothing appended.

Provide only the value of recorded IC50 for CCc1cccc2cccc(N3CCc4c(nc(OCC56CCCN5CCC6)nc4N4CCCC(c5nc(C)c(C(=O)NC6CCC6)o5)C4)C3)c12 (stereo not shown) [Example 140] 2.23

Indicate its recorded IC50; the compound in question is CCc1cccc2cccc(N3CCc4c(nc(OCC56CCCN5CCC6)nc4N4CC(CO)OC5(CCC5)C4)C3)c12 (stereo not shown) [Example 129] 2.43

Supply IC50 value. Item: CCc1c(F)ccc2cc(O)cc(N3CCc4c(nc(OC[C@@]56CCCN5C[C@H](F)C6)nc4N4CCC(c5[nH]ncc5N)C4)C3)c12 (stereo partly shown) [Example 26] 0.022

Identify measured IC50 associated with CCc1cccc2cccc(N3CCc4c(nc(OCC56CCCN5CCC6)nc4N4CCCN(C(=O)c5ccco5)CC4)C3)c12 [Example 102] 0.424

The measurements presented in this section are drawn from patent US12421253B2.
